B1: Osa-1-4 twister ribozyme (parent)
chain: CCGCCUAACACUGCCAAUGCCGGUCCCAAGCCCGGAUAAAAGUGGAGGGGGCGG

Variants of: B1
Test: self-cleavage, relative activity (ratio to wild type); higher = more cleavage; co-transcriptional
Listing: self-cleavage of selected variants
Give the figure only, with no unit attached.

Past entries and their recorded results:
variant_descriptor	self-cleavage
C27G G34U	0.08
A29C A38C	0.04
G23U G49A	0.03
C52A U18A	0.93

Prompt: I'd like to know its self-cleavage. The variant in question is C31G G50C
Response: 0.07

Prompt: I'd like to know its self-cleavage. The variant in question is A7U U12G
Response: 0.06

Prompt: I'd like to know its self-cleavage. The variant in question is C33G U24C
Response: 0.04

Prompt: I'd like to know its self-cleavage. The variant in question is G47C G51U
Response: 0.05

Prompt: I'd like to know its self-cleavage. The variant in question is G22A G30C
Response: 0.05

Prompt: I'd like to know its self-cleavage. The variant in question is A8G C14U
Response: 0.14

Prompt: I'd like to know its self-cleavage. The variant in question is C20A C33U
Response: 0.76

Prompt: I'd like to know its self-cleavage. The variant in question is C31G G51C
Response: 0.04

Prompt: I'd like to know its self-cleavage. The variant in question is G44U U18C
Response: 0.69

Prompt: I'd like to know its self-cleavage. The variant in question is A8G C25G
Response: 0.08

Prompt: I'd like to know its self-cleavage. The variant in question is C52A U12G
Response: 0.18

Prompt: I'd like to know its self-cleavage. The variant in question is A29G U43A
Response: 0.07
